Task for the reader: assign each of the following molecules its reported Activity.
- System: Human immunodeficiency virus 1
- measurement-description: Binding affinity to HLT-tagged HIV-1 Rev measured after overnight incubation by chemiluminescence analysis relative to IN 174-188
- Parameters: concentration or dose not given beside the values
Square brackets hold non-standard residues; d marks the D form. Peptide text beside a SMILES is read from it. NMeR = CN[C@@H](CCCNC(=N)N)C(=O)O; NMeM = CN[C@@H](CCSC)C(=O)O; NMeV = CN[C@H](C(=O)O)C(C)C; NMeA = CN[C@@H](C)C(=O)O

Just so you know, measured Activity for CC[C@H](C)[C@H](NC(=O)[C@H](Cc1ccccc1)NC(=O)[C@@H](NC(=O)[C@H](C)NC(=O)[C@H](CCSC)NC(=O)[C@H](CCC(N)=O)NC(=O)[C@@H](NC(=O)[C@H](C)NC(=O)[C@@H](N)[C@@H](C)O)C(C)C)C(C)C)C(=O)N[C@@H](Cc1cnc[nH]1)C(=O)N[C@@H](CC(N)=O)C(=O)O (H-TAVQMAVFIHN-OH) came out at 0%

Just so you know, measured Activity for CC[C@H](C)[C@H](NC(=O)[C@H](Cc1ccccc1)NC(=O)[C@@H](NC(=O)[C@H](C)NC(=O)[C@H](CCSC)NC(=O)[C@H](CCC(N)=O)NC(=O)[C@@H](N)C(C)C)C(C)C)C(=O)N[C@@H](Cc1cnc[nH]1)C(=O)N[C@@H](CC(N)=O)C(=O)N[C@@H](Cc1ccccc1)C(=O)N[C@@H](CCCCN)C(=O)N[C@@H](CCCNC(=N)N)C(=O)N[C@@H](CCCCN)C(=O)O (H-VQMAVFIHNFKRK-OH) came out at 104%

Just so you know, measured Activity for CC[C@H](C)[C@H](NC(=O)[C@H](Cc1ccccc1)NC(=O)[C@@H](NC(=O)[C@H](C)NC(=O)[C@H](CCSC)NC(=O)[C@H](CCC(N)=O)NC(=O)[C@@H](NC(=O)[C@H](C)NC(=O)[C@@H](N)[C@@H](C)O)C(C)C)C(C)C)C(=O)N[C@@H](Cc1cnc[nH]1)C(=O)N[C@@H](CC(N)=O)C(=O)N[C@@H](Cc1ccccc1)C(=O)N[C@@H](CCCCN)C(=O)N(C)[C@@H](CCCNC(=N)N)C(=O)N[C@@H](CCCCN)C(=O)O (H-TAVQMAVFIHNFK[NMeR]K-OH) came out at 75%

Just so you know, measured Activity for CC[C@H](C)[C@H](NC(=O)[C@H](Cc1ccccc1)NC(=O)[C@@H](NC(=O)[C@H](C)NC(=O)[C@H](CCSC)NC(=O)[C@H](CCC(N)=O)NC(=O)[C@@H](NC(=O)[C@H](C)NC(=O)[C@@H](N)[C@@H](C)O)C(C)C)C(C)C)C(=O)N[C@@H](Cc1cnc[nH]1)C(=O)N[C@H](CC(N)=O)C(=O)N[C@@H](Cc1ccccc1)C(=O)N[C@@H](CCCCN)C(=O)N[C@@H](CCCNC(=N)N)C(=O)N[C@@H](CCCCN)C(=O)O came out at 92%

Just so you know, measured Activity for CC[C@H](C)[C@H](NC(=O)[C@H](Cc1ccccc1)NC(=O)[C@@H](NC(=O)[C@@H](C)NC(=O)[C@H](CCSC)NC(=O)[C@H](CCC(N)=O)NC(=O)[C@@H](NC(=O)[C@H](C)NC(=O)[C@@H](N)[C@@H](C)O)C(C)C)C(C)C)C(=O)N[C@@H](Cc1cnc[nH]1)C(=O)N[C@@H](CC(N)=O)C(=O)N[C@@H](Cc1ccccc1)C(=O)N[C@@H](CCCCN)C(=O)N[C@@H](CCCNC(=N)N)C(=O)N[C@@H](CCCCN)C(=O)O came out at 194%

Just so you know, measured Activity for CC[C@H](C)[C@H](NC(=O)[C@H](Cc1ccccc1)NC(=O)[C@@H](NC(=O)[C@H](C)N(C)C(=O)[C@H](CCSC)NC(=O)[C@H](CCC(N)=O)NC(=O)[C@@H](NC(=O)[C@H](C)NC(=O)[C@@H](N)[C@@H](C)O)C(C)C)C(C)C)C(=O)N[C@@H](Cc1cnc[nH]1)C(=O)N[C@@H](CC(N)=O)C(=O)N[C@@H](Cc1ccccc1)C(=O)N[C@@H](CCCCN)C(=O)N[C@@H](CCCNC(=N)N)C(=O)N[C@@H](CCCCN)C(=O)O (H-TAVQM[NMeA]VFIHNFKRK-OH) came out at 66%

Just so you know, measured Activity for CC[C@H](C)[C@H](NC(=O)[C@H](Cc1ccccc1)NC(=O)[C@@H](NC(=O)[C@H](C)NC(=O)[C@H](CCSC)N(C)C(=O)[C@H](CCC(N)=O)NC(=O)[C@@H](NC(=O)[C@H](C)NC(=O)[C@@H](N)[C@@H](C)O)C(C)C)C(C)C)C(=O)N[C@@H](Cc1cnc[nH]1)C(=O)N[C@@H](CC(N)=O)C(=O)N[C@@H](Cc1ccccc1)C(=O)N[C@@H](CCCCN)C(=O)N[C@@H](CCCNC(=N)N)C(=O)N[C@@H](CCCCN)C(=O)O (H-TAVQ[NMeM]AVFIHNFKRK-OH) came out at 134%

Just so you know, measured Activity for CC[C@H](C)[C@H](NC(=O)[C@H](Cc1ccccc1)NC(=O)[C@@H](NC(=O)[C@H](C)NC(=O)[C@H](CCSC)NC(=O)[C@H](CCC(N)=O)NC(=O)[C@H](C(C)C)N(C)C(=O)[C@H](C)NC(=O)[C@@H](N)[C@@H](C)O)C(C)C)C(=O)N[C@@H](Cc1cnc[nH]1)C(=O)N[C@@H](CC(N)=O)C(=O)N[C@@H](Cc1ccccc1)C(=O)N[C@@H](CCCCN)C(=O)N[C@@H](CCCNC(=N)N)C(=O)N[C@@H](CCCCN)C(=O)O (H-TA[NMeV]QMAVFIHNFKRK-OH) came out at 110%

Just so you know, measured Activity for CC[C@H](C)[C@H](NC(=O)[C@H](Cc1ccccc1)NC(=O)[C@@H](NC(=O)[C@H](C)NC(=O)[C@H](CCSC)NC(=O)[C@H](CCC(N)=O)NC(=O)[C@@H](NC(=O)[C@H](C)NC(=O)[C@@H](N)[C@@H](C)O)C(C)C)C(C)C)C(=O)N[C@@H](Cc1cnc[nH]1)C(=O)N[C@@H](CC(N)=O)C(=O)N[C@H](Cc1ccccc1)C(=O)N[C@@H](CCCCN)C(=O)N[C@@H](CCCNC(=N)N)C(=O)N[C@@H](CCCCN)C(=O)O came out at 156%
